B1: NET1 (parent)
chain: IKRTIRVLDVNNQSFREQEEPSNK

Variants of: B1
Procedure details: protein stability index of a GFP-peptide fusion (GPS, HEK-293T) (PSI 1-6); higher = more stable;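 further: lentivirally expressed fusions sorted by FACS into six bins by GFP to DsRed ratio, PSI derived from sequencing read proportions per bin multiplied by bin number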
Run parameters: c terminus: a fixed tail appended
protein stability index for assorted variants
Assay metric: protein stability index

{"Mutant label": "Q18S", "Reported value": 2.79}
{"Mutant label": "I5P", "Reported value": 3.78}
{"Mutant label": "P21S", "Reported value": 4.27}
{"Mutant label": "E17F", "Reported value": 2.8}
{"Mutant label": "R6E", "Reported value": 4.65}
{"Mutant label": "Q13R", "Reported value": 3.27}
{"Mutant label": "V7M", "Reported value": 3.27}
{"Mutant label": "S14I", "Reported value": 3.64}
{"Mutant label": "N23S", "Reported value": 3.97}
